FYI, the data here is from PubChem BioAssay AID686919.

system: cruzain (cruzipain) [Trypanosoma cruzi]; assay: T. cruzi cruzain enzyme activity inhibition – biochemical, dry powder, percent inhibition, mechanism study for T. cruzi phenotypic hit project, dose response (AID 686919); conditions: recombinant cruzain, Z-Phe-Arg-AMC fluorescence rate; at 10 µM (top of the series)
# note: boundary value 80% maps to Criterion not met; remaining cruzain activity (% of DMSO control) below it maps to Criterion met

Enquiry: Does this molecule meet the criterion remaining cruzain activity (% of DMSO control) < 80%? CN(C)C(=O)c1cccc(-c2ccc([C@H]3[C@H](CO)N4CCCCN(C(=O)C5CCCCC5)C[C@@H]34)cc2)c1
Return: Criterion met

Enquiry: remaining cruzain activity (% of DMSO control) strictly < 80% for this molecule? O=C(C1CCC1)N1CCCCN2[C@@H](CO)[C@H](c3ccc(Br)cc3)[C@@H]2C1
Return: Criterion not met

Enquiry: Is the reported remaining cruzain activity (% of DMSO control) for CN(C)C(=O)c1cccc(-c2ccc([C@H]3[C@H](CO)N4CCCCN(C(=O)C5CCC5)C[C@@H]34)cc2)c1 strictly below 80%?
Return: Criterion not met

Enquiry: Is it true that remaining cruzain activity (% of DMSO control) reported for CN(C)C(=O)c1cccc(-c2ccc([C@H]3[C@H](CO)N4CCCCN(C(=O)CC5CC5)C[C@@H]34)cc2)c1 is less than 80%?
Return: Criterion not met

Enquiry: is_below(remaining cruzain activity (% of DMSO control), 80%) for CN(C)C(=O)c1cccc(-c2ccc([C@H]3[C@H](CO)N4CCCCN(C(=O)C5CC5)C[C@@H]34)cc2)c1 ?
Return: Criterion not met
